- subject_of_test: T1, PDZD8, Q8NEN9
- T1 sequence (Q8NEN9 361-459, limits assumed, looked up): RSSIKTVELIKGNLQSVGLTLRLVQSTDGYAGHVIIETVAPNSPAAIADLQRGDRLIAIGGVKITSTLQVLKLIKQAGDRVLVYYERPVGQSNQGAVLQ
- test_details: holdup assay
- Parameters: key: below the threshold = too weak to quantify, mostly under pKd 3.1 to 4
- experimental_context: plain residues with an end cap or a label only (N-terminal biotin on a linker: ttds)
reported_metric: pKd

PKTPPTDTSV [KIR3DL3, Q8N743] : 4.36
SVWLRKETRV [CYSLTR2, Q9NS75] : below the threshold
STLTIFETAL [ABCC4, O15439] : below the threshold
